# maps each entry to its pEC50
# TARGET_OF_ASSAY: T1, hCEACAM5, human CEACAM5 ECD (35-685) (human, UniProt P06731 35-685)
# T1 construct: produced in HEK293; also called human CEACAM5 protein; human CEACAM5 extracellular domain
# T1 sequence: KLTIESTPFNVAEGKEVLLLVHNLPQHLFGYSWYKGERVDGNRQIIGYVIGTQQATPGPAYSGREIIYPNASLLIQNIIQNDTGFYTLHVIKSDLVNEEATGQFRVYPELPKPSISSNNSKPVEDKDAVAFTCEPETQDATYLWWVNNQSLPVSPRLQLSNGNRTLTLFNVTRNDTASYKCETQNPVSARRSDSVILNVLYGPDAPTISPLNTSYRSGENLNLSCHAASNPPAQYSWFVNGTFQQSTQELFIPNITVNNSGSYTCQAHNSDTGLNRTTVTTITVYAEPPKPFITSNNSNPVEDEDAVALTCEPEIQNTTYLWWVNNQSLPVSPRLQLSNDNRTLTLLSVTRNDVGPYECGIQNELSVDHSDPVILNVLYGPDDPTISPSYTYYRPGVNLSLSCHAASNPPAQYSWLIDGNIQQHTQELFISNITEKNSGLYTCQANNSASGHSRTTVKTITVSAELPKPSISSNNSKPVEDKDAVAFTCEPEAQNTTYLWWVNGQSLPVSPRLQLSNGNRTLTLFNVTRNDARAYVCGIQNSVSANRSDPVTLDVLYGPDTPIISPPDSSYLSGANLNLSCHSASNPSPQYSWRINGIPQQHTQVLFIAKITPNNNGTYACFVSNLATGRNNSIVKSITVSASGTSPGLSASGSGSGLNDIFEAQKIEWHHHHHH
# PROCEDURE_DETAILS: ELISA, coated CEACAM5
Friendly reminder that pEC50 comes from taking -log10 of the concentration in mol/L.

BINDER	pEC50
antibody MAb3 (antibody, IgG1, V domains shown, Murine monoclonal from hybridoma, IgG1, kappa) VH: EVKLVESGGGLVKPGGSLTLPCAASGFTFSRYAMSWVRQTPEKRLEWVASISSGGDTYYPDSVKGRFTVSRDNARNILFLQMSSLRSEDTGMYYCARVNYYDSSFLDWWGQGTTLTVSS VL: DIVMTQSQRFMSTLEGDRVSVTCKASQNVGTNVAWYQQKPGQSPKALIYSASYRYSGVPDRFTGSGSGTDFTLTISNVQSEDLAEYFCQQYNNYPLYTFGGGTKLEIK	9.44

Here is the next item to consider.
Give its pEC50 value. Item: antibody MAb1 (antibody, IgG1, V domains shown) VH: EVMLVESGGGLVKPGGSLKLSCAASGFTFSSYAMSWVRQTPEKRLEWVATISSGGSYIYYLDSVKGRFTISRDNAKNTLYLQMSSLRSEDTAMYYCARPAYYGNPAMDYWGQGTSVTVSS VL: DILMTQSQKFMSTSVGDRVSVTCKASQNVGTNVAWYQQKPGQSPKPLIYSASYRYSGVPDRFTGSGSGTDFTLTISNVQSEDLAEYFCQQYNSYPLYTFGGGTKLEIK
9.28
